# experimental.protocol: Percentage unbound in rat plasma
# Format: ADME, cell-free
measured.parameter: fraction unbound
Keep the answer to the number alone.

As a guide, the following entries are already answered.
CO[C@H]1CN(c2nc(-c3cnccn3)c(C(=O)O)s2)CC[C@H]1NC(=O)c1[nH]c(C)c(Cl)c1Cl ... 0.0715
COCCNC(=O)c1nc(N2CC[C@@H](NC(=O)c3[nH]c(C)c(Cl)c3Cl)[C@@H](OC)C2)sc1C(=O)O ... 0.038
COC[C@H](C)NC(=O)c1nc(N2CC[C@@H](NC(=O)c3[nH]c(C)c(Cl)c3Cl)[C@@H](OC)C2)sc1C(=O)O ... 0.034

Next compound, fraction unbound to be filled in.
[ask] Given CO[C@H]1CN(c2nc(-c3ncnn3C)c(C(=O)O)s2)CC[C@H]1NC(=O)c1[nH]c(C)c(Cl)c1Cl , state its recorded fraction unbound.
[reply] 0.088

----------
# target: DNA gyrase subunit B (Staphylococcus aureus, UniProt P0A0K8)
# Sequence (P0A0K8 whole entry): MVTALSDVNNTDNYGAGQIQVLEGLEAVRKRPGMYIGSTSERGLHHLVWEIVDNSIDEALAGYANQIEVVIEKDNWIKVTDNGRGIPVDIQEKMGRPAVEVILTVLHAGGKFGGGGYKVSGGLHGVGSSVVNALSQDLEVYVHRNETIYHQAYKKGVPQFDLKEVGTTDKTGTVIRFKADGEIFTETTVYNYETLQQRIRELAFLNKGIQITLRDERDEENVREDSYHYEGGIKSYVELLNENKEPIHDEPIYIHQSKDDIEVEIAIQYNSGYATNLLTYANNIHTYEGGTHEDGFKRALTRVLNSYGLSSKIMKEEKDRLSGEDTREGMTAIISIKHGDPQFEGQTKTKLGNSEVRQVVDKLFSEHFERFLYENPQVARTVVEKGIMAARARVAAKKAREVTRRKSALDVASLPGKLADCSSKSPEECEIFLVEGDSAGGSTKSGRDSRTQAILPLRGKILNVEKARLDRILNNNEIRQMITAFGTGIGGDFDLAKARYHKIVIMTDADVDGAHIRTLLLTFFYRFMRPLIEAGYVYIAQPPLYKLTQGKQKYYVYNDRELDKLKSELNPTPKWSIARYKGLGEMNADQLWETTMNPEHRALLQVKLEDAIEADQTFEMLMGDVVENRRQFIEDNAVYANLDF
# experimental.protocol: Inhibition of ATPase activity of Staphylococcus aureus GyrB
pIC50: −log10 of the molar value.
pIC50 values, listed per item

As a guide, the following entries are already answered.
COCCNC(=O)c1nc(N2CC[C@@H](NC(=O)c3[nH]c(C)c(Cl)c3Cl)[C@@H](OC)C2)sc1C(=O)O ... > 8.00
C#CCO[C@H]1CN(c2ncc(C(=O)O)s2)CC[C@H]1NC(=O)c1[nH]c(C)c(Cl)c1Cl ... > 8.00
Cc1[nH]c(C(=O)N[C@@H]2CCN(c3ncc(C(=O)O)s3)CC23OCCO3)c(Cl)c1Cl ... 7.82

[ask] Record lookup: for DNA gyrase subunit B (Staphylococcus aureus, UniProt P0A0K8), what pIC50 belongs to CO[C@H]1CN(c2nc(-c3cncc(OCCN(C)C)n3)c(C(=O)O)s2)CC[C@H]1NC(=O)c1[nH]c(C)c(Cl)c1Cl ?
[reply] > 8.00

[ask] Entry to check: CO[C@H]1CN(c2nc(C(=O)O)c(C)s2)CC[C@H]1NC(=O)c1[nH]c(C)c(Cl)c1Cl
[reply] > 8.00

----------
# experimental.protocol: Percentage unbound in human plasma
# Assay type: ADME, cell-free
fraction unbound values, listed per item

As a guide, the following entries are already answered.
Cc1[nH]c(C(=O)N[C@@H]2CCN(c3ncc(C(=O)O)s3)C[C@@H]2Cl)c(Cl)c1Cl (racemic) ... 0.008
CS[C@H]1CN(c2ncc(C(=O)O)s2)CC[C@H]1NC(=O)c1[nH]c(C)c(Cl)c1Cl (racemic) ... 0.015
CO[C@H]1CN(c2nc(C(=O)N3CCOCC3)c(C(=O)O)s2)CC[C@H]1NC(=O)c1[nH]c(C)c(Cl)c1Cl (racemic) ... 0.14

Next molecule, fraction unbound to be filled in.
[ask] Given CO[C@H]1CN(c2nc(C(=O)NCC3OCCO3)c(C(=O)O)s2)CC[C@H]1NC(=O)c1[nH]c(C)c(Cl)c1Cl , state its recorded fraction unbound.
[reply] 0.028

----------
MIC values, listed per item
# Tested on: Escherichia coli
# experimental.protocol: Antimicrobial activity against Escherichia coli tolC- by broth microdilution/CLSI method
# Type: functional
# assay.conditions: Escherichia coli; read-out: MIC
Give the quantity in µg/mL, number only.

As a guide, the following entries are already answered.
CO[C@H]1CN(c2nc(-c3nccs3)c(C(=O)O)s2)CC[C@H]1NC(=O)c1[nH]c(C)c(Cl)c1Cl ... 0.13
Cc1[nH]c(C(=O)N[C@@H]2CCN(c3ncc(C(=O)O)s3)C[C@@H]2CO)c(Cl)c1Cl (racemic) ... 1
CO[C@H]1CN(c2ncc(C(=O)O)s2)CC[C@H]1NC(=O)c1[nH]c(C)c(Cl)c1Cl (relative stereo) ... 0.35

[ask] Given Cc1[nH]c(C(=O)N[C@@H]2CCN(c3ncc(C(=O)O)s3)C[C@@H]2F)c(Cl)c1Cl , state its recorded MIC.
[reply] 0.081

[ask] Entry to check: CS[C@H]1CN(c2ncc(C(=O)O)s2)CC[C@H]1NC(=O)c1[nH]c(C)c(Cl)c1Cl (racemic)
[reply] 0.25

[ask] Entry to check: CO[C@H]1CN(c2nc(C(=O)N(C)C)c(C(=O)O)s2)CC[C@H]1NC(=O)c1[nH]c(C)c(Cl)c1Cl (racemic)
[reply] 2

----------
# experimental.protocol: Percentage unbound in human plasma
# Type: ADME, cell-free
Give T when the value for fraction unbound is at least 0.03. Give F when it is less.

Reference set, count: 3
CO[C@H]1CN(c2nc(C(=O)NC[C@H](C)OC)c(C(=O)O)s2)CC[C@H]1NC(=O)c1[nH]c(C)c(Cl)c1Cl ... F
CO[C@H]1CN(c2nc(-c3cncc(NCCN4CCN(C)CC4)n3)c(C(=O)O)s2)CC[C@H]1NC(=O)c1[nH]c(C)c(Cl)c1Cl ... F
CO[C@H]1CN(c2nc(C(=O)NN3CCOCC3)c(C(=O)O)s2)CC[C@H]1NC(=O)c1[nH]c(C)c(Cl)c1Cl ... T

[ask] Could you please find out whether COCCO[C@H]1CN(c2ncc(C(=O)O)s2)CC[C@H]1NC(=O)c1[nH]c(C)c(Cl)c1Cl (racemic) has fraction unbound that meets 0.03 or exceeds it?
[reply] T

[ask] Entry to check: Cc1[nH]c(C(=O)N[C@@H]2CCN(c3ncc(C(=O)O)s3)C[C@@H]2S(C)(=O)=O)c(Cl)c1Cl (racemic)
[reply] T

[ask] Entry to check: CO[C@H]1CN(c2nc3cccc(C(=O)O)c3s2)CC[C@H]1NC(=O)c1[nH]c(C)c(Cl)c1Cl
[reply] F

[ask] Entry to check: COCC(COC)(COC)NC(=O)c1nc(N2CC[C@@H](NC(=O)c3[nH]c(C)c(Cl)c3Cl)[C@@H](OC)C2)sc1C(=O)O
[reply] T

----------
# Tested on: Moraxella catarrhalis
# experimental.protocol: Antimicrobial activity against Moraxella catarrhalis by broth microdilution/CLSI method
# Type: functional
# assay.conditions: Moraxella catarrhalis; read-out: MIC
With a cut-off of 0.1 µg/mL, any MIC strictly below it is called y; any MIC meeting it or above is called n.

Cc1[nH]c(C(=O)N[C@@H]2CCN(c3ncc(C(=O)O)s3)C[C@@H]2CO)c(Cl)c1Cl (racemic) ... n
Cc1[nH]c(C(=O)N[C@@H]2CCN(c3ncc(C(=O)O)s3)CC23OCCO3)c(Cl)c1Cl ... n
CS[C@H]1CN(c2ncc(C(=O)O)s2)CC[C@H]1NC(=O)c1[nH]c(C)c(Cl)c1Cl (racemic) ... y
COCC(COC)(COC)NC(=O)c1nc(N2CC[C@@H](NC(=O)c3[nH]c(C)c(Cl)c3Cl)[C@@H](OC)C2)sc1C(=O)O ... y

[ask] Is the reported MIC for Cc1[nH]c(C(=O)N[C@@H]2CCN(c3ncc(C(=O)O)s3)C[C@@H]2Cl)c(Cl)c1Cl (racemic) strictly below 0.1 µg/mL?
[reply] n

[ask] Entry to check: CO[C@H]1CN(c2nc(C(=O)O)c(C(N)=O)s2)CC[C@H]1NC(=O)c1[nH]c(C)c(Cl)c1Cl (racemic)
[reply] n

[ask] Entry to check: CCO[C@H]1CN(c2ncc(C(=O)O)s2)CC[C@H]1NC(=O)c1[nH]c(C)c(Cl)c1Cl (racemic)
[reply] n

[ask] Entry to check: CO[C@H]1CN(c2nc(-c3ncccn3)c(C(=O)O)s2)CC[C@H]1NC(=O)c1[nH]c(C)c(Cl)c1Cl
[reply] y

[ask] Entry to check: C#CCO[C@H]1CN(c2ncc(C(=O)O)s2)CC[C@H]1NC(=O)c1[nH]c(C)c(Cl)c1Cl
[reply] y

[ask] Entry to check: CO[C@H]1CN(c2nc(C)c(C(=O)O)s2)CC[C@H]1NC(=O)c1[nH]c(C)c(Cl)c1Cl
[reply] y

[ask] Entry to check: CO[C@H]1CN(c2nc(-c3nc(C)no3)c(C(=O)O)s2)CC[C@H]1NC(=O)c1[nH]c(C)c(Cl)c1Cl
[reply] y

[ask] Entry to check: CO[C@H]1CN(c2nc(C(=O)N3CCOCC3)c(C(=O)O)s2)CC[C@H]1NC(=O)c1[nH]c(C)c(Cl)c1Cl (racemic)
[reply] n

[ask] Entry to check: CO[C@H]1CN(c2nc(-c3ccccn3)c(C(=O)O)s2)CC[C@H]1NC(=O)c1[nH]c(C)c(Cl)c1Cl
[reply] y

[ask] Entry to check: C=CCO[C@H]1CN(c2ncc(C(=O)O)s2)CC[C@H]1NC(=O)c1[nH]c(C)c(Cl)c1Cl (racemic)
[reply] y

[ask] Entry to check: CO[C@H]1CN(c2nc(-c3csc(N)n3)c(C(=O)O)s2)CC[C@H]1NC(=O)c1[nH]c(C)c(Cl)c1Cl
[reply] y

[ask] Entry to check: COCCNC(=O)c1nc(N2CC[C@@H](NC(=O)c3[nH]c(C)c(Cl)c3Cl)[C@@H](OC)C2)sc1C(=O)O
[reply] n
